Listed here are compounds together with their documented normalized growth.
Assay: chemical genetic growth profiling, strain panel (AID 1159580);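 note: tested at 20 µM; growth read once vehicle control cultures reached saturation at 30 °C; 1 = growth at the plate median or of vehicle wells; lower values mean less growth of the strain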
Settings: S. cerevisiae deletion strains, growth OD, locus YDL035C, strain GPR1, active compounds read low
Among all 5,500 compounds or so, about 2,000 (36%) were called active. Inconclusive results (about 18%) are left out. The list shows a part of the results.
Reply with the value as a number alone.

Reference set (6 entries):
| COMPOUND | RECORDED_MEASUREMENT |
| --- | --- |
| COc1ccc(C(CN(C)C)C2(O)CCCCC2)cc1 (centres undefined) | 1.02 |
| COc1ccc(-c2coc3cc(O)ccc3c2=O)c(OC)c1O | 1 |
| NCCCS(=O)(=O)O | 0.988 |
| CNC(=O)O/N=C(\C)SC | 1.02 |
| O=C(O)CCCc1ccccc1 | 1.01 |
| COc1cc2nc(N(C)CCCNC(=O)C3CCCO3)nc(N)c2cc1OC (centres undefined) | 1.03 |

// Input: "COc1ccc(-c2coc3cc(OC)ccc3c2=O)cc1" . Output its normalized growth only.
0.905

Given the compound "O=S(=O)(O)CCS" , write its reported normalized growth.
1.02
